# System: IFNγ stimulated STAT1 phosphorylation on Tyr701 (JAK1/2)
# experimentDescription: JAK1/2 cellular target modulation: IFNγ stimulated phospho-STAT1 in PBMC
# Format: cell-based
# conditionContext: human PBMC, IFNγ 10 ng/ml; read-out: Infγ-STAT1 IC50
measuredAttribute: IC50

Completed entries (count: 3):
                                   compound                        experimentalsystem  measuredattribute  observedresult
0  C[C@H]1C[C@@H](Nc2c(-c3ncc(S(C)(=O)=O)s3)cnc3[nH]ccc23)CN(C(=O)CC#N)C1  IFNγ stimulated STAT1 phosphorylation on Tyr701 (JAK1/2)               IC50        ≤ 100 nM
1  CS(=O)(=O)c1cnc(-c2cnc3[nH]ccc3c2N[C@@H]2CCCN(CCC#N)C2)s1  IFNγ stimulated STAT1 phosphorylation on Tyr701 (JAK1/2)               IC50       > 1000 nM
2  N#CCC(=O)N1CCC[C@@H](Nc2c(-c3nnc[nH]3)cnc3[nH]ccc23)C1  IFNγ stimulated STAT1 phosphorylation on Tyr701 (JAK1/2)               IC50       > 1000 nM

--- query ---
Input line: Tell me IC50 reported for N#CCC(=O)N1CCC[C@@H](Nc2c(-c3cccc(N)n3)cnc3[nH]ccc23)C1
Output line: 100 to 1000 nM
